Origin of values: PubChem BioAssay AID330

Test system: P388 leukemia ip, CD2F1 mice, survival T/C
Test: NCI In Vivo Anticancer Drug Screen. Data for tumor model P388 Leukemia (intraperitoneal) in CD2F1 (CDF1) mice
Settings: endpoint: median survival time; dose: 60.0 mg/kg/injection; schedule: Q01DX005 (ip); vehicle: saline; higher = longer survival
Inconclusive results and toxic doses are left out.
T/C listing for selected molecules.
VALUE_KIND: T/C

# MOLECULE, VALUE_KIND, MEASURED_RESULT
measured = [
    ("C/C(C/C(C)=N/C(N)=S)=N\\C(N)=S", "T/C", "100 % of control"),
    ("Nc1nnc2nc(CC(=O)c3ccc(F)cc3)c(CC(=O)c3ccc(F)cc3)nn12", "T/C", "104 % of control"),
    ("O=C1OCN2C(=O)CCC12 (stereo not drawn)", "T/C", "109 % of control"),
    ("COC(=O)C1(CS(C)(=O)=O)NC(=S)NC(=O)C1C#N (stereo not drawn)", "T/C", "97 % of control"),
    ("NC(=O)C1CCCN1C(=O)C1CCCN(Cc2ccc(CN3CCCC(C(=O)N4CCCC4C(N)=O)C3)cc2)C1 (stereo not drawn)", "T/C", "106 % of control"),
    ("CC(C)Cc1cc(-c2cc(CC(C)C)nc(N)n2)nc(N)n1", "T/C", "100 % of control"),
    ("C=C(CC(N)=O)C(N)C(=O)O (stereo not drawn)", "T/C", "100 % of control"),
    ("CCCCCCC(=O)CC(SCC(NC(C)=O)C(=O)O)c1ccccc1Cl (stereo not drawn)", "T/C", "101 % of control"),
    ("OC1CC2OC2C1O (stereo not drawn)", "T/C", "103 % of control"),
    ("CC(C)CCN=C(N)N=C(N)N", "T/C", "100 % of control"),
    ("CCc1cccc(C)c1NC(=O)C(=O)C(C#N)c1ccccc1 (stereo not drawn)", "T/C", "105 % of control"),
    ("CC(CN(C)C)C(=O)/C=C/c1ccc(Cl)cc1 (stereo not drawn)", "T/C", "118 % of control"),
    ("Cc1oc2ccccc2c(=O)c1CN1CCN(C)CC1", "T/C", "101 % of control"),
]
